# ASSAY_SYSTEM: SLK (human)
# PROTOCOL_DESCRIPTION: KINOMEscan competition binding
# CONDITION_NOTES: compound 10.0 µM
RECORDED_METRIC: kinase still bound, per cent of control (%)
# number only, unit % dropped from output

Worked examples follow.
>>> endpoint_result("C=CC(=O)Nc1cc(NC(=O)c2ccc(C)c(NC(=O)c3ccno3)c2)cc(C(F)(F)F)c1")
100
>>> endpoint_result("N#Cc1c(NC(=O)c2cccc3ccccc23)sc2c1CCCC2")
82
>>> endpoint_result("Cc1ccc2nc(NCCN)c3ncc(C)n3c2c1")
100
>>> endpoint_result("CCC(=O)N1CCN(c2ccc(-n3c(=O)ccc4cnc5ccc(-c6cnc7ccccc7c6)cc5c43)cc2C(F)(F)F)CC1")
94

Qu. Indicate the recorded kinase still bound, per cent of control value for this molecule: "C=CC(=O)Nc1cccc(Oc2nc(Nc3ccc(N4CCN(C)CC4)cc3OC)ncc2Cl)c1"
Ans. 100

Qu. Supply reported kinase still bound, per cent of control belonging to this molecule: "CCN1CCN(Cc2ccc(Nc3ncc4c(n3)N(C)c3ccccc3C(=O)N4C)cc2C(F)(F)F)CC1"
Ans. 2.4

* * *

# ASSAY_SYSTEM: MAPK4 (human)
# PROTOCOL_DESCRIPTION: KINOMEscan competition binding
# CONDITION_NOTES: compound 10.0 µM
Recorded measurements of kinase still bound, per cent of control, one per entry
# unit: % | format: bare number

>>> endpoint_result("Cc1ccc(C(=O)Nc2cccc(C(F)(F)F)c2)cc1Nc1cncc(C(N)=O)c1")
100
>>> endpoint_result("COc1cc(C(=O)NC2CCN(C)CC2)ccc1Nc1ncc2c(n1)N(C1CCCC1)CCC(=O)N2C(C)C")
100
>>> endpoint_result("C=CC(=O)Nc1cccc(Nc2nc(N[C@H]3CC[C@H](N(C)C)CC3)nc3c2ncn3C(C)C)c1")
100

Qu. Name the recorded kinase still bound, per cent of control of the item "CCC(=O)N1CCN(c2ccc(-n3c(=O)ccc4cnc5ccc(-c6cnc7ccccc7c6)cc5c43)cc2C(F)(F)F)CC1" in your answer.
Ans. 80

Qu. Provide one value: measured kinase still bound, per cent of control of "O=C1Nc2ccc(I)cc2/C1=C/c1cc(Br)c(O)c(Br)c1"
Ans. 100

Qu. Look up and report measured kinase still bound, per cent of control for this entry: "Cc1ccc(NC(=O)c2cccc(C(C)(C)C#N)c2)cc1Nc1ccc2ncn(C)c(=O)c2c1"
Ans. 100

* * *

# ASSAY_SYSTEM: CDK17 (human)
# PROTOCOL_DESCRIPTION: KINOMEscan competition binding
# CONDITION_NOTES: compound 10.0 µM
kinase still bound, per cent of control reference
I'd appreciate it if you wrote the number followed by its unit.

Worked cases, answers included:
>>> endpoint_result("COc1cc(C(=O)NC2CCN(C)CC2)ccc1Nc1ncc2c(n1)N(C1CCCC1)C(C)CC(=O)N2C (stereo not given)")
"100%"
>>> endpoint_result("CCC(=O)N1CCN(c2ccc(-n3c(=O)ccc4cnc5ccc(-c6cnc7ccccc7c6)cc5c43)cc2C(F)(F)F)CC1")
"97%"
>>> endpoint_result("C=CC(=O)Nc1cccc(Oc2nc(Nc3ccc(N4CCN(C)CC4)cc3OC)ncc2Cl)c1")
"100%"

Qu. # return kinase still bound, per cent of control for "N#Cc1c(NC(=O)c2cccc3ccccc23)sc2c1CCCC2" , test system: CDK17 (human)
Ans. 93%

Qu. Consider the molecule "O=C(O)c1ccc(Nc2ncc3c(n2)-c2ccc(Cl)cc2C(c2c(F)cccc2F)=NC3)cc1" tested on CDK17 (human); state its kinase still bound, per cent of control.
Ans. 100%

Source: the kinase profiling compilation of Christmann-Franck et al. (2016)
